# System: influenza A/Egypt/NRC098/2019(H1N1)
value type: SI (selectivity index = CC50/IC50)
Give bare numbers.

For orientation, consider the following solved cases.
O=C1c2cccc(O)c2C(=O)c2c(O)cc(CO)cc21 | 3.127
C=C(C)[C@@H]1CC[C@]2(C)CC[C@]3(C)[C@H](CC[C@@H]4[C@@]5(C)CC[C@H](O)C(C)(C)[C@@H]5CC[C@]43C)[C@@H]12 | 5.98
C[C@@H]1CC[C@@]2(OC1)O[C@H]1[C@@H](O)[C@H]3[C@@H]4CC[C@H]5C[C@@H](O[C@@H]6O[C@H](CO)[C@H](O[C@@H]7O[C@H](CO)[C@@H](O)[C@H](O[C@@H]8OC[C@@H](O)[C@H](O)[C@H]8O)[C@H]7O[C@@H]7O[C@H](CO)[C@H](O)[C@H](O[C@@H]8O[C@H](CO)[C@@H](O)[C@H](O)[C@H]8O)[C@H]7O)[C@H](O)[C@H]6O)[C@H](O)C[C@]5(C)[C@H]4CC[C@]3(C)[C@H]1[C@@H]2C | 20.56
O=c1cc(-c2ccccc2)oc2cc(O)ccc12 [7-Hydroxy flavone] | 16.194
O=c1c(O[C@@H]2O[C@H](CO)[C@@H](O)[C@H](O)[C@H]2O)c(-c2ccc(O)c(O)c2)oc2cc(O)cc(O)c12 | 4.25

Can you look up the measured SI (selectivity index = CC50/IC50) of CC[C@H](CC[C@@H](C)[C@H]1CC[C@H]2[C@@H]3CC=C4C[C@@H](O[C@@H]5O[C@H](CO)[C@@H](O)[C@H](O)[C@H]5O)CC[C@]4(C)[C@H]3CC[C@]12C)C(C)C [β-sitosterol-O-glucoside] for me?
2434
